Data provenance is a melting point compilation (Tetko et al.; mined from patent text by program, amines drawn as free bases though some values may be those of a salt).

quantity: melting point

# annotated cases, reported melting point shown
1. COc1ccc2c(c1)c(Cc1nc(-c3ccc(F)cc3)cs1)c(C)n2C(=O)c1ccc(Cl)cc1 = 172 to 174 °C
2. OCc1ccc2cnn(-c3ccnc(N[C@H]4CC[C@H](O)CC4)n3)c2c1 = 216 to 218 °C
3. COCCNc1cc(C)n(COC)c(=O)c1[N+](=O)[O-] = 172 to 173 °C
4. OC(c1cc2ccccc2s1)C1CCN(CCc2ccccc2)CC1 (stereo not given) = 178 °C
5. COC(=O)CC1CCCN(C(=O)c2ccc(N3CCCC3)cc2Cl)c2ccccc21 (stereo not given) = 158 °C

Name the reported melting point value associated with the compound CC(C)(OCc1cc2cc(C(F)(F)F)ccc2n1S(=O)(=O)c1ccc2c(c1)CCO2)C(=O)O
92 to 94 °C

Thanks! And O=CC1c2ccccc2CCc2ccccc21 ?
76 to 77 °C

Now consider Cc1cc(Oc2nc(-c3ccccc3)ns2)c(C)cc1N=CN(C)C .
100 to 105 °C

Input COc1ccc(S(=O)(=O)CCNC(=O)N2CCCC2=O)cc1
124 to 125 °C

And the next one, CCc1cc(Br)c2c(O)c(C(=O)OC)c(C(=O)OC)nc2c1 ?
207 to 208 °C

Next up: Cn1c(=O)[nH]c2nccnc2c1=O
342 to 343 °C

Try the compound CN(C(=O)CN(C(=O)CNC(=O)Nc1cccc(CCO)c1)c1ccccc1)c1ccccc1
152 °C

Now the same for O=C(Nc1ccc(N(CCCl)CCCl)cc1)Nc1c2ccccc2nc2ccccc12
184 to 186 °C

Another compound to look at: CC(=O)NCC1=CC(c2ccccc2)Cc2c1ccc(O)c2O (stereo not given)
238 °C

For Cc1c(C)c2c(c(C)c1N)CC(C)(CN1CCC(O)(c3ccc(Cl)cc3)CC1)O2 (stereo not given) then?
118 to 120 °C

Could you do the same for CC(C)(C1OCCO1)C(O)(Cn1cncn1)c1ccc(F)cc1 (stereo not given) , please?
90 °C

// same read-out, input: CCOC(=O)C1=C(C)NC(=S)NC1c1cccc([N+](=O)[O-])c1 (stereo not given)
208 to 209 °C

And COc1cccc2c1OC(CO)CN2C(=O)OC(C)(C)C (stereo not given) ?
65 to 68 °C

Ok, now CCCCN(c1nc(N2CCOCC2)nc(N(CCCC)C2CC(C)(C)N(OC3CCCCC3)C(C)(C)C2)n1)C1CC(C)(C)N(OC2CCCCC2)C(C)(C)C1
159 to 163 °C

Also Nc1nc(N)c2ncn(COCCOC(=O)c3ccccc3)c2n1 ?
205 °C

Also Cc1nc2c(N[C@@H]3c4ccccc4C[C@H]3O)cc(C(=O)N(C)C)cn2c1C (relative stereo) , if possible.
148 to 149 °C

Try this compound next: O=Cc1c2ccsc2cc2c1ccc1ccccc12
178 to 180 °C

Next up: CCC1=NNC(C)=C(C(=O)OCc2ccccc2)C1c1cccc([N+](=O)[O-])c1 (stereo not given)
154 °C

COC(=O)CN1C(=O)c2ccc3ccccc3c2S1(=O)=O , same question.
188 °C

And the next one, CCOP(=O)(CNC(=O)OC(c1ccccc1)c1cc(C(C)(C)C)c(O)c(C(C)(C)C)c1)OCC (stereo not given) ?
196 to 197 °C

Quick one: C[C@@H](NC(=O)c1c[nH]c2ncc(-c3nn(C)c4c(F)c(F)ccc34)nc12)C(=O)N1CC(C#N)C1
240 to 250 °C

One more compound: CC(=O)c1ccc2nccc(OS(=O)(=O)C(F)(F)F)c2c1
94 °C
